Every entry's value here was drawn from BigSolDB 2.1.

# stated.conditions: in ethanol, 283.15 K
readout.type: solubility (mole fraction)
Give the figure by itself; no unit, no explanation.

Exercise: # solubility (mole fraction) lookup, item CC(C)(C)C(=O)C(Oc1ccc(Cl)cc1)n1ccnc1 (stereo unspecified)
Solution: 0.0952

====

# stated.conditions: in n-butanol, 318.15 K
readout.type: solubility (mole fraction)

Exercise: Endpoint output: solubility (mole fraction) of CC(C)(C)C(=O)C(Oc1ccc(Cl)cc1)n1ccnc1 (stereo unspecified) . Value?
Solution: 0.282
